TARGET_DESC: recombinant CETP (rCETP) (Homo sapiens, UniProt P11597)
Sequence (P11597 18-493): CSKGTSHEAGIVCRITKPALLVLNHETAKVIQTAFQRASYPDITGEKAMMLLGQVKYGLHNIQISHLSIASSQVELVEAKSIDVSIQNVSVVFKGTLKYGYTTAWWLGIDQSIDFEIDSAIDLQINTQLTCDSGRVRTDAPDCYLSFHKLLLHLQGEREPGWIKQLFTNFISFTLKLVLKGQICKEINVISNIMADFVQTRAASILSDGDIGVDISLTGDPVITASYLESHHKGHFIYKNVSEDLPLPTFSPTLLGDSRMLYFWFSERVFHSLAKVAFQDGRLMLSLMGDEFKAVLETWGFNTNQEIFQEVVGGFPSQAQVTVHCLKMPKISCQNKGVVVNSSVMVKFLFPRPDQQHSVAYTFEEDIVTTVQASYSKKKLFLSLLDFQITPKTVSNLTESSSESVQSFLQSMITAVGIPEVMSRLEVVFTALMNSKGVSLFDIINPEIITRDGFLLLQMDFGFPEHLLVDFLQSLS
RUN_DESCRIPTION: RTA assay using recombinant CETP (2% RTA)
Format: biochemical
TEST_CONTEXT: RTA assay in 2% human serum; read-out: IC50
VALUE_TYPE: pIC50
Remember the convention: pIC50 equals -log10 of concentration in molar.

Guide cases for pIC50, answers given:
{"COMPOUND": "COc1ccc(-c2cc(C(=O)O)sc2C)cc1-c1ccc(N2CCC2)nc1CN1C(=O)O[C@H](c2cc(C(F)(F)F)cc(C(F)(F)F)c2)[C@@H]1C [Example 109]", "VALUE_TYPE": "pIC50", "ASSAY_VALUE": 8.05}
{"COMPOUND": "COc1ccc(CCC(=O)O)cc1-c1ccc(N2CCCC2)nc1CN1C(=O)O[C@H](c2cc(C(F)(F)F)cc(C(F)(F)F)c2)[C@@H]1C [Example 62]", "VALUE_TYPE": "pIC50", "ASSAY_VALUE": 7.31}
{"COMPOUND": "COc1ccc(CC(N)=O)cc1-c1ccc(N2CCC2)nc1CN1C(=O)O[C@H](c2cc(C(F)(F)F)cc(C(F)(F)F)c2)[C@@H]1C [Example 254]", "VALUE_TYPE": "pIC50", "ASSAY_VALUE": 7.82}

Provide value of pIC50 for this record tested with recombinant CETP (rCETP) (Homo sapiens, UniProt P11597): COc1ccc(CO)cc1-c1ccc(N2CCC2)nc1CN1C(=O)O[C@H](c2cc(C(F)(F)F)cc(C(F)(F)F)c2)[C@@H]1C [Example 258] 8.15

* * *

The entries below are paired with their reported pIC50.
TARGET_DESC: recombinant CETP (rCETP) (Homo sapiens)
Sequence (P11597 18-493): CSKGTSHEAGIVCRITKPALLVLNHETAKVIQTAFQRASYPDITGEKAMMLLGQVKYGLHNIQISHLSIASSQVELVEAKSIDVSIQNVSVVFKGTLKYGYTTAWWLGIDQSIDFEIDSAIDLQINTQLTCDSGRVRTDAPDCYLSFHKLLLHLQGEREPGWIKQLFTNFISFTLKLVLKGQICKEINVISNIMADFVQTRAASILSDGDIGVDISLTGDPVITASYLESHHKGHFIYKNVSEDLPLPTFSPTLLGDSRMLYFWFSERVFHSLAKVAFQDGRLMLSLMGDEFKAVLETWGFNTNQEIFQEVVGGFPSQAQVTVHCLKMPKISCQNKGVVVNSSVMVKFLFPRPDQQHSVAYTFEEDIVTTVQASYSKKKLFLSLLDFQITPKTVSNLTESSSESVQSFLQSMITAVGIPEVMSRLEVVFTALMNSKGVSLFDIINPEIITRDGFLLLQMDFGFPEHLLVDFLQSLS
RUN_DESCRIPTION: RTA assay using recombinant CETP (2% RTA)
Assay type: biochemical
TEST_CONTEXT: RTA assay in 2% human serum; read-out: IC50
Remember the convention: pIC50 equals -log10 of concentration in molar.

Requested field: pIC50. Item: COC(=O)c1cc(C)c(-c2ccc(OC)c(-c3ccc(N4CCC4)nc3CN3C(=O)O[C@H](c4cc(C(F)(F)F)cc(C(F)(F)F)c4)[C@@H]3C)c2)s1 [Example 46] 8.00

Requested field: pIC50. Item: COC(=O)[C@H]1CC[C@@H](c2ccc(OC)c(-c3ccc(N4CCC4)nc3CN3C(=O)O[C@H](c4cc(C(F)(F)F)cc(C(F)(F)F)c4)[C@@H]3C)c2)C1 (single isomer, unassigned) [Example 218] 7.92

Requested field: pIC50. Item: COc1ccc([C@H]2CC[C@H](C(=O)O)CC2)cc1-c1cnc(N2CC(F)C2)nc1CN1C(=O)O[C@H](c2cc(C(F)(F)F)cc(C(F)(F)F)c2)[C@@H]1C [Example 185] 7.92

* * *

TARGET_DESC: recombinant CETP (rCETP) (Homo sapiens)
RUN_DESCRIPTION: RTA assay using recombinant CETP (2% RTA)
Assay type: biochemical
TEST_CONTEXT: RTA assay in 2% human serum; read-out: IC50
VALUE_TYPE: IC50 (nM)
Please give a number only; it is taken to be in nM.

{"SMILES_STRING": "COc1ccc([C@@H]2C[C@H]2C(=O)O)cc1-c1ccc(N2CCC2)nc1CN1C(=O)O[C@H](c2cc(C(F)(F)F)cc(C(F)(F)F)c2)[C@@H]1C", "VALUE_UNIT": "nM", "ASSAY_VALUE": 7}

Provide value of IC50 for this record tested with recombinant CETP (rCETP) (Homo sapiens): COC(=O)c1sc(-c2ccc(OC)c(-c3ccc(N4CCC4)nc3CN3C(=O)O[C@H](c4cc(C(F)(F)F)cc(C(F)(F)F)c4)[C@@H]3C)c2)c(C)c1C 15

Provide value of IC50 for this record tested with recombinant CETP (rCETP) (Homo sapiens): COc1cc(F)c(-c2ccc(C(=O)O)cc2C)cc1-c1cnc(N2CC(F)(F)C2)nc1CN1C(=O)O[C@H](c2cc(C(F)(F)F)cc(C(F)(F)F)c2)[C@@H]1C 7

Provide value of IC50 for this record tested with recombinant CETP (rCETP) (Homo sapiens): Cc1cc(C(=O)O)ccc1-c1cc(-c2cnc(N3CC(F)(F)C3)nc2CN2C(=O)O[C@H](c3cc(C(F)(F)F)cc(C(F)(F)F)c3)[C@@H]2C)ccc1F 12

Provide value of IC50 for this record tested with recombinant CETP (rCETP) (Homo sapiens): COC(=O)C[C@H]1C[C@H](c2ccc(OC)c(-c3ccc(N4CCC4)nc3CN3C(=O)O[C@H](c4cc(C(F)(F)F)cc(C(F)(F)F)c4)[C@@H]3C)c2)C1 7

* * *

TARGET_DESC: recombinant CETP (rCETP) (Homo sapiens, UniProt P11597)
RUN_DESCRIPTION: RTA assay using recombinant CETP (2% RTA)
Type: biochemical
TEST_CONTEXT: RTA assay in 2% human serum; read-out: IC50
VALUE_TYPE: pIC50
Remember the convention: pIC50 equals -log10 of concentration in molar.

{"SMILES_STRING": "COc1ccc([C@H]2C[C@H](C(=O)O)C2)cc1-c1ccc(N2CC(F)(F)C2)nc1CN1C(=O)O[C@H](c2cccc(OC(F)(F)F)c2)[C@@H]1C", "ASSAY_VALUE": 6.94}

Requested field: pIC50. Item: COc1ccc(-c2ccc(O)c(C(C)=O)c2)cc1-c1ccc(N2CCC2)nc1CN1C(=O)O[C@H](c2cc(C(F)(F)F)cc(C(F)(F)F)c2)[C@@H]1C 7.05

Requested field: pIC50. Item: COC(=O)c1cc(-c2ccc(OC)c(-c3ccc(N4CCC4)nc3CN3C(=O)O[C@H](c4cc(C(F)(F)F)cc(C(F)(F)F)c4)[C@@H]3C)c2)no1 7.10

Requested field: pIC50. Item: COC(=O)[C@H]1CC[C@H](c2ccc(Cl)c(-c3cnc(N4CCC4)nc3CN3C(=O)O[C@H](c4cc(C(F)(F)F)cc(C(F)(F)F)c4)[C@@H]3C)c2)CC1 6.80

Requested field: pIC50. Item: COc1ccc(CC(C)(C)C(=O)OC(C)(C)C)cc1-c1cnc(N2CCC2)nc1CN1C(=O)O[C@H](c2cc(C(F)(F)F)cc(C(F)(F)F)c2)[C@@H]1C 6.94

* * *

TARGET_DESC: recombinant CETP (rCETP) (Homo sapiens, UniProt P11597)
Sequence (P11597 18-493): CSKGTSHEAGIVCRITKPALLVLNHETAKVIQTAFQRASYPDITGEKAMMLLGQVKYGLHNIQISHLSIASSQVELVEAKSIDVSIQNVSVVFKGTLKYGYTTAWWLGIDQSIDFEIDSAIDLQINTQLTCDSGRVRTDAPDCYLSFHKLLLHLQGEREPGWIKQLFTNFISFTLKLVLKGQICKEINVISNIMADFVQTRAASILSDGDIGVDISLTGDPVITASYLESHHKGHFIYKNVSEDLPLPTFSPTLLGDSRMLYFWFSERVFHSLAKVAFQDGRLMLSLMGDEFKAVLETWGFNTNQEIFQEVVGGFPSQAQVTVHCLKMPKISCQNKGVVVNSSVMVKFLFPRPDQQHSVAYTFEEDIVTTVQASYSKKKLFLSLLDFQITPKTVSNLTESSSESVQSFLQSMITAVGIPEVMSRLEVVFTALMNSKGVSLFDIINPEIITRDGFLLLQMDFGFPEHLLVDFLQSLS
RUN_DESCRIPTION: RTA assay using recombinant CETP (2% RTA)
Type: biochemical
TEST_CONTEXT: RTA assay in 2% human serum; read-out: IC50
VALUE_TYPE: IC50 (nM)
Please give a number only; it is taken to be in nM.

{"MOLECULE": "COc1ccc([C@@H]2C[C@H]2C(N)=O)cc1-c1ccc(N2CCC2)nc1CN1C(=O)O[C@H](c2cccc(C(F)(F)F)c2)[C@@H]1C [Example 252]", "ASSAY_VALUE": 63}
{"MOLECULE": "COc1ccc([C@H]2CC[C@H](C(=O)OC)CC2)cc1-c1ccc(N2CCC2)nc1CN1C(=O)O[C@H](c2cc(C)cc(C)c2)[C@@H]1C [Example 200]", "ASSAY_VALUE": 55}
{"MOLECULE": "COc1ccc(CCC(=O)O)cc1-c1cnc(N2CCC2)nc1CN1C(=O)O[C@H](c2cc(C(F)(F)F)cc(C(F)(F)F)c2)[C@@H]1C [Example 171]", "ASSAY_VALUE": 60}
{"MOLECULE": "COC(=O)CC(C)(C)c1ccc(OC)c(-c2ccc(N3CCC3)nc2CN2C(=O)O[C@H](c3cc(C(F)(F)F)cc(C(F)(F)F)c3)[C@@H]2C)c1 [Example 7]", "ASSAY_VALUE": 12}

Provide value of IC50 for this record tested with recombinant CETP (rCETP) (Homo sapiens, UniProt P11597): COc1ccc(-c2ccc(C(=O)O)cc2C)cc1-c1ccc(N2CCC2)nc1CN1C(=O)O[C@H](c2cc(C)cc(C)c2)[C@@H]1C [Example 236] 13
